Recorded values, source paper PMC7391724.

- ASSAY NOTES: Whole blood stability, mouse
- Type: in vitro ADME
- RUN CONDITIONS: 37 °C, after two hours, mouse whole blood, read-out: percent remaining in whole blood
EXPERIMENTAL ENDPOINT: remaining at 2 h, 500 nM (%)
Express it in %; write the number only.

Challenge: Give its remaining at 2 h, 500 nM value. Item: C=C1C[C@H]2C=Nc3cc(OCCCCCOc4cc5c(cc4OC)C(=O)N4CC(=C)C[C@H]4C=N5)c(OC)cc3C(=O)N2C1 [EC2491]
Response given: 87.3
